Data origin, for the record: the supplement of paper PMC3545927

- study-target: furin, P09958;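 also: purified furin at 1:10 enzyme:substrate in 50 mM HEPES pH 7.5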
- Sequence (P09958 whole entry): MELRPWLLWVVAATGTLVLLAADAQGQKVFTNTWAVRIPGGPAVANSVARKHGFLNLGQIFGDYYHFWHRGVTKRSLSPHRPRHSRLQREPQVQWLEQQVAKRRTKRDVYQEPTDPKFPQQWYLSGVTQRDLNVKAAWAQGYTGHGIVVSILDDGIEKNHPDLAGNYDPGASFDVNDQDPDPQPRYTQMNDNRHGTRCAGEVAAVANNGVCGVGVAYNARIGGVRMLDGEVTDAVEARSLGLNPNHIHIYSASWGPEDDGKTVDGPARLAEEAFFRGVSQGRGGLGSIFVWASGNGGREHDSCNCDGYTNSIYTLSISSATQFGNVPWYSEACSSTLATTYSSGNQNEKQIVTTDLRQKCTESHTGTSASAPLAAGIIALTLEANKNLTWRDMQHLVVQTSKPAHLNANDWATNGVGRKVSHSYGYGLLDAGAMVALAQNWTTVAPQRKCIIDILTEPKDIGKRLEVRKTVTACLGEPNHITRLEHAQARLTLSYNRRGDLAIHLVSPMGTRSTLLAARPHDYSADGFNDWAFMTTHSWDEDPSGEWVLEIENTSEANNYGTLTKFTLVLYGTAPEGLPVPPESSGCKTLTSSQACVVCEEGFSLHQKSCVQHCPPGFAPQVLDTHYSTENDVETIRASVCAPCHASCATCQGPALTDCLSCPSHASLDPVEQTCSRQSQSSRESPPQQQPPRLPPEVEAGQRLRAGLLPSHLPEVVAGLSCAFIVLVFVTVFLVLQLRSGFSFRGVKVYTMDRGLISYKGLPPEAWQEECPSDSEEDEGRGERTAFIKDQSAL
- method-notes: furin cleavage Z-score vs untreated control; higher = more cleavage, active = 3.5 or more, inactive = 1 or less, 8 variable residues between constant flanks
- condition: 15 min
Some of the results follow. No count for the full screen is at hand.
Lab note: assign the record to one of active, inactive

Examples with answers:
CAEVVTATWVAGNASASA [HC141] = inactive
CAITSRIIRSAGNASASA [FS-1217] = active
CAEVVTSQWVAGNASASA [HC2222] = inactive
CAEVPCHRPFAGNASASA [HC2407] = inactive
CACQRGYKGVAGNASASA [HC1166] = inactive

Exam item: Which result was noted for this sequence in the test: CAPQDVKFPGAGNASASA [HC170]
Marked response: inactive
